# experimental_details: soluble on expression in E. coli; label from the status in PepcDB or PDB records
readout_label: soluble on expression in E. coli

Illustrative cases are given below, each with its answer.
>  <macromolecule_sequence>
MGHHHHHHSHMLVLRSGLTKALASRTLAPQVCSSFATGPRQYDGTFYEFRTYYLKPSNMNAFMENLKKNIHLRTSYSELVGFWSVEFGGRTNKVFHIWKYDNFAHRAEVRKALANCKEWQEQSIIPNLARIDKQETEITYLIPWSKLEKPPKEGVYELAVFQMKPGGPALWGDAFERAINAHVNLGYTKVVGVFHTEYGELNRVHVLWWNESADSRAAGRHKSHEDPRVVAAVRESVNYLVSQQNMLLIPASFSPLK

>  <soluble on expression in E. coli>
not soluble

$$$$
>  <macromolecule_sequence>
AMAELKEFLNKPAATSDVPPAPAGFDFDAAKKLVDVRCNKCHTLDSVADLFRTKYKKTGQVNLIVKRMQGFPGSGISDDDAKTIGIWLHEKF

>  <soluble on expression in E. coli>
soluble

$$$$
>  <macromolecule_sequence>
SLKAIKNGTILTGTGETIKQGTLLIQDGKVLEVGQRVDTPANAKLIDATGKYVTPGLIDVHTHIGVFSEGLGRTGHDFNETTAAATPYIRAIDGIYPFDQGFEDARQSGVTTVQIMPGSANVIGGEMVTVKTAGTVVDEMIVRAPSGMKAAFGENPKNVHGGKGKLPATRMGVAALFRQQLYQAQDYLKRFEKGELEKRDLGMEQLAKVLRKEIPLRVHAHRADDIATVLRMVDEFDLEATIEHCTEGHLIADHIAKYNVKVSVGPTMTSRTKQELVNKGWHTLIELEKHGIPFSITTDHPVVTINHLVTSAIQAVKAGLSEQSAFQAITLRAAEHIGVEQQVGSLEKGKDGDFVIWSDHPFTATAQVEATYINGKCVTGSHC

>  <soluble on expression in E. coli>
not soluble

$$$$
>  <macromolecule_sequence>
MKRIQEIQQNLERLAEMDEHLEQCEEWNVVAQEIVQKLSTIRKEVERSAAPTPLLLTPPGSCGSGSIYSDISSEMTNVYTEAVEAYDQQIYSRCVRLVEGANRESPVDMCLISLAHHSYAEMVNAASGSDDAMKFAKWWAEFLDSVEAGRGHSEKIELLDYEAVAYEKIVKLGGVADVEKLIEVVVRSYEMVTLLNRPYHILSLQKLFRLTNVLSSSEVDLESDAFSSAKTVVLTGIQNVLRDRKKFAQLGKFNEHNMKIAMRRTAQPDFRVRYCEKR

>  <soluble on expression in E. coli>
soluble

$$$$

Each of the following entries comes with a recorded value; kindly state soluble on expression in E. coli for each.
1. MAHHHHHHMKLFCVGHRKVPIRVSPFDHPICVGCSSTLSFSSVLRKREYWNDMSTTNPLDVVLNMRLAVKELTNSAAASDKASEREKIKAKKALNKDNIEAARVYAENAIRKKDEGTSYLRLASRVDAAAERIQSAMQMHAMTRSLEKAICGISKVLHSLDPVQITTAMDAFERHVDTVAVNANAMDGTFERSRASAVPAAEVESFLEQITPDNEIDISEQIAVATNYLKKRPAATEVGDDVGITERMQRISIGAR
2. MTGYGSLFERLNGDADKRVGWSREVSAMASVAAHLGKMLSTRAGSVQTLSDYGLPDLNDMRLSLHDSLSQARSAIEGFIEAYEPRLSDVRVVSLPRDNDQLRLAFSIEGLLEVEGFKRQVSFSACLDGSGQVKVS

1. not soluble
2. not soluble
